Measured pIC50, listed per entry for reference.
Target: human TLR7 (Homo sapiens, UniProt Q9NYK1)
Construct: host or cells: HEK-Blue cells
Sequence (Q9NYK1 27-1049): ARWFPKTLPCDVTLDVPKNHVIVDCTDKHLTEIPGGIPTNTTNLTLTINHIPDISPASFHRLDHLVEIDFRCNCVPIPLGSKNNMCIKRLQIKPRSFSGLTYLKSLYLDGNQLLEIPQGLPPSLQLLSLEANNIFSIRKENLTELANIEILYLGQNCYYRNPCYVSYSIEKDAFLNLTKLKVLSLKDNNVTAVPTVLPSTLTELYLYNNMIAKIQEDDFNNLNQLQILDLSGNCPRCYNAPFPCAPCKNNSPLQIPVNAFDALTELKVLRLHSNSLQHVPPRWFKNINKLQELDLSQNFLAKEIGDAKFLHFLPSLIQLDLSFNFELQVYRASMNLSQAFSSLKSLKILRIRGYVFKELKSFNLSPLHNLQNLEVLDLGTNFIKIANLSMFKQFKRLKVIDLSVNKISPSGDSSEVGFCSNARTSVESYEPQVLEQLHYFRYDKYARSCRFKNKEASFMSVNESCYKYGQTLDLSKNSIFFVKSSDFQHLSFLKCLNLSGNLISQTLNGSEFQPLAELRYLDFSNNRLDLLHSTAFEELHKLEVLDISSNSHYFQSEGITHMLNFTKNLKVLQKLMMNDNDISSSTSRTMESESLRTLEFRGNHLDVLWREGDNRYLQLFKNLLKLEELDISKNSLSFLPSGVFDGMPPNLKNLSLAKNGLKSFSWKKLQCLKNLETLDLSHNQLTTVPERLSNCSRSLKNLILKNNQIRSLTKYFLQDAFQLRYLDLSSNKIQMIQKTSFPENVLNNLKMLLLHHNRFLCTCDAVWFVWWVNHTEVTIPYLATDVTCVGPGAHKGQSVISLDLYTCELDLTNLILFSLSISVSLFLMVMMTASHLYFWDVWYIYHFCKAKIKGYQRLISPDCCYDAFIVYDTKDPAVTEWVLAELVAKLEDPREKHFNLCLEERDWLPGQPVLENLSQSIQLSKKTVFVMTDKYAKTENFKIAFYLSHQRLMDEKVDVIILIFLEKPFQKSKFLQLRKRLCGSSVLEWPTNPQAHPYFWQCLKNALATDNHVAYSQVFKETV
Assay: TLR7 inhibition reporter assay (HEK-Blue cells, SEAP reporter, gardiquimod stimulation)
Format: cell-based
Conditions: HEK-Blue cells overexpressing human TLR7, SEAP reporter, gardiquimod 7.5 μM; read-out: TLR7 IC50
pIC50: −log10 of the molar value.
QUANTITY: pIC50

In [3]: df
Out[3]:
                                   molecule  observed_measurement
0  CCc1c(-c2cc(OC)c3ncnn3c2)[nH]c2sc(C3CCC(NC4COC4)CC3)nc12 (single isomer, unassigned) [Example 271]                  9.02
1  CNC1CCC(c2nc3c(C(C)C)c(-c4cc(OC)c5ncnn5c4)[nH]c3s2)CC1 (single isomer, unassigned) [Example 74]                  9.15
2  CNCC(=O)N1C[C@H](C)N(c2nc3c(C(C)C)c(-c4cn5ncnc5c(C)c4C)[nH]c3s2)C[C@H]1C                  8.33

###

Biological target: human TLR9 (Homo sapiens, UniProt Q9NR96)
Test: TLR9 inhibition reporter assay (HEK-Blue cells, SEAP reporter, ODN2006 stimulation)
Conditions: HEK-Blue cells overexpressing human TLR9, SEAP reporter, ODN2006 5 nM
Criterion: IC50 strictly under 9 µM. Met: Met. Not met: Not met.

>>> df
                                   molecule  class_name
0  COc1cc(-c2[nH]c3sc(C4CCC(N5CC(O)(C(F)(F)F)C5)CC4)nc3c2C(C)C)cn2ncnc12 (single isomer, unassigned) [Example 118]         Met
1  Cc1c(-c2[nH]c3sc(N4C[C@@H](C)N(CC(N)=O)C[C@@H]4C)nc3c2C(C)C)cn2ncnc2c1C [Example 338]     Not met
2  COc1cc(-c2[nH]c3sc(C4CCC(N5CC[C@@H](NC(C)=O)C5)CC4)nc3c2C(C)C)cn2ncnc12 (single isomer, unassigned) [Example 100]         Met
3  Cc1c(-c2[nH]c3sc(C(=O)NCC(C)(C)N4CCOCC4)nc3c2C(C)C)cn2ncnc2c1C [Example 374]     Not met
4  COc1cc(-c2[nH]c3sc(C4CCC(N5CCNC(=O)C5)CC4)nc3c2C(C)C)cn2ncnc12 (single isomer, unassigned) [Example 121]     Not met

###

Parameter: IC50. Scope: all listed entries.
Molecular target: human TLR9 (Homo sapiens, UniProt Q9NR96)
Sequence (Q9NR96 26-1032): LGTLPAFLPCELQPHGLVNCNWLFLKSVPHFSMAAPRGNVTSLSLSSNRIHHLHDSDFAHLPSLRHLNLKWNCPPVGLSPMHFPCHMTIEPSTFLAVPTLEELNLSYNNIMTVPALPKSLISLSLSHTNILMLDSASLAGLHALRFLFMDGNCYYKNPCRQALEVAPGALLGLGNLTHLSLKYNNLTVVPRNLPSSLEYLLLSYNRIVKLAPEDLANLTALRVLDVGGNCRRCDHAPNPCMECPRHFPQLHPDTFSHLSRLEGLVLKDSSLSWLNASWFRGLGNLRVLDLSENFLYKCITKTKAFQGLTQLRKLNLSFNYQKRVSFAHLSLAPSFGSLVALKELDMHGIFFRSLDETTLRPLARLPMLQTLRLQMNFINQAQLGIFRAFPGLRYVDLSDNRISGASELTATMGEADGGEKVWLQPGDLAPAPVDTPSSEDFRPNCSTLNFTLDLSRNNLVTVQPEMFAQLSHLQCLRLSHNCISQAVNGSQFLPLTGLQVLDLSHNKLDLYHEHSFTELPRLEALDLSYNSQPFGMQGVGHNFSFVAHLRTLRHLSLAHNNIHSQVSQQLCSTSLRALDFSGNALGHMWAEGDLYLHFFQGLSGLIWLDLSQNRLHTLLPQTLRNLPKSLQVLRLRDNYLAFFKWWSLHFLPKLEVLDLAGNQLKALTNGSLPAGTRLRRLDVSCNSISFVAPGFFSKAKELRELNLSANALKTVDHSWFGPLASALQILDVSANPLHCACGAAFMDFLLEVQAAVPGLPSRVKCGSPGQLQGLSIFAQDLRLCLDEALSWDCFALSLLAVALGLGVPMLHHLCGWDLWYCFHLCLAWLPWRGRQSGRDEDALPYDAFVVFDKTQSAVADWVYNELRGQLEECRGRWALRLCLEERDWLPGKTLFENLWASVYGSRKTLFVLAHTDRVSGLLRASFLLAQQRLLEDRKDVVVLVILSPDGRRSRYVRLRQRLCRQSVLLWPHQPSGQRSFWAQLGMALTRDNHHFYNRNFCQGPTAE
Assay: TLR9 inhibition reporter assay (HEK-Blue cells, SEAP reporter, ODN2006 stimulation)
Conditions: HEK-Blue cells overexpressing human TLR9, SEAP reporter, ODN2006 5 nM
QUANTITY: IC50

In [3]: df
Out[3]:
                                   molecule  quantity  observed_measurement
0  Cc1c(-c2[nH]c3sc(C(=O)N4CC(N(C)C)C4)nc3c2C(C)C)cn2ncnc2c1C [Example 383]      IC50                 47 µM
1  Cc1c(-c2[nH]c3sc(C4CCC(N5CC6(COC6)C5)CC4)nc3c2C(C)C)cn2ncnc2c1C (single isomer, unassigned) [Example 193]      IC50               7.63 µM
2  Cc1c(-c2[nH]c3sc(C4CCC(N5CC(O)(C(F)(F)F)C5)CC4)nc3c2C(C)C)cn(C)c(=O)c1C (single isomer, unassigned) [Example 267]      IC50               > 50 µM

###

Molecular target: human TLR8 (Homo sapiens)
Construct: host or cells: HEK-Blue cells
Sequence (Q9NR97 27-1041): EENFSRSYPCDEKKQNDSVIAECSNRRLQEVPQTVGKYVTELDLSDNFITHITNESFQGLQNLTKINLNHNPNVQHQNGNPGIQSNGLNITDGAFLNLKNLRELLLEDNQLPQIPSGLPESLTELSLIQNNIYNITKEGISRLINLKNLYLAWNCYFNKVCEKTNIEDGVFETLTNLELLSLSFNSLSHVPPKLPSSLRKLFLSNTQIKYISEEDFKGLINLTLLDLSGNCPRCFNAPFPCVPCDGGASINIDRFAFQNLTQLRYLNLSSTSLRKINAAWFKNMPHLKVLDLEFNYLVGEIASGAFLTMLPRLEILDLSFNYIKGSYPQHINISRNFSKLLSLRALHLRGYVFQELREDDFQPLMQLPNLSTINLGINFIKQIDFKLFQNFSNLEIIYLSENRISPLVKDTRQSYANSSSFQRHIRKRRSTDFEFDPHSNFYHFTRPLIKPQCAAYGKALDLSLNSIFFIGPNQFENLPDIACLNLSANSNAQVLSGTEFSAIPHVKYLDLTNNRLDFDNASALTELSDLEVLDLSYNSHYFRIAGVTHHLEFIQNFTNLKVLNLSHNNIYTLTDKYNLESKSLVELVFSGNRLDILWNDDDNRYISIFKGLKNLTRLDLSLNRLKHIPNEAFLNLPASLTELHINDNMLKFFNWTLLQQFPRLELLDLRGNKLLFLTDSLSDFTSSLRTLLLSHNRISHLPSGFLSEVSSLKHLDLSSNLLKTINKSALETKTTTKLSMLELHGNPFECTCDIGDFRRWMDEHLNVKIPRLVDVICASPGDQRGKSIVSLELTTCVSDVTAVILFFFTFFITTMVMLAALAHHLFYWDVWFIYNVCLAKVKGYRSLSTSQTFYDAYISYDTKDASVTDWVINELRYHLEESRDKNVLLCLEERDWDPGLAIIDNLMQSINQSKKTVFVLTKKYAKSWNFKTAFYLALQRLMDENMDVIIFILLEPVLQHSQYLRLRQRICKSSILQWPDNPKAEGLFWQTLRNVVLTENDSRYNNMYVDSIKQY
Assay: TLR8 inhibition reporter assay (HEK-Blue cells, SEAP reporter, R848 stimulation)
Assay type: cell-based
Conditions: HEK-Blue cells overexpressing human TLR8, SEAP reporter, R848 15.9 μM; read-out: TLR8 IC50
pIC50: −log10 of the molar value.
QUANTITY: pIC50

>>> df
                                   molecule  observed_measurement
0  Cc1c(-c2[nH]c3sc(N4CCN(C5CCOCC5)CC4)nc3c2C(C)C)cn2ncnc2c1C [Example 287]                  9.27
1  COc1cc(-c2[nH]c3sc(C4CCC(N(C)CCS(C)(=O)=O)CC4)nc3c2C(C)C)cn2ncnc12 (single isomer, unassigned) [Example 164]                  8.35
2  Cc1c(-c2[nH]c3sc(N4CCN(CC5CCOCC5)C[C@H]4C)nc3c2C(C)C)cn2ncnc2c1C [Example 317]                  8.37
3  Cc1c(-c2[nH]c3sc(C4CCN(CCS(C)(=O)=O)CC4)nc3c2C(C)C)cn(C)c(=O)c1C [Example 61]                  8.27
4  Cc1c(-c2[nH]c3sc(N4CCN(CCS(C)(=O)=O)C[C@@H]4C)nc3c2C(C)C)cn2ncnc2c1C [Example 344]                  7.90
5  CNC(=O)CN1CCN(c2nc3c(C(C)C)c(-c4cn5ncnc5c(C)c4C)[nH]c3s2)CC1 [Example 284]                  8.29
6  COc1cc(-c2[nH]c3sc(C4CCC(NC(=O)CNCC(C)C)CC4)nc3c2C(C)C)cn2ncnc12 (stereo not shown) [Example 129]                  8.13

###

We begin with a simple list: items and their reported IC50.
Target: human TLR8 (Homo sapiens)
Construct: host or cells: HEK-Blue cells
Experiment: TLR8 inhibition reporter assay (HEK-Blue cells, SEAP reporter, R848 stimulation)
Format: cell-based
Settings: HEK-Blue cells overexpressing human TLR8, SEAP reporter, R848 15.9 μM; read-out: TLR8 IC50
QUANTITY: IC50 (µM)

In [3]: df
Out[3]:
                                    molecule  observed_measurement
 0  Cc1cc(-c2[nH]c3sc(C4CCN(CC5(C)COC5)CC4)nc3c2C(C)C)cn2ncnc12               0.00101
 1  Cc1cc(-c2[nH]c3sc(C4CCC(NC56CC(C5)C6)CC4)nc3c2C(C)C)cn2ncnc12 (single isomer, unassigned) [Example 138]               0.00396
 2  Cc1cc(-c2[nH]c3sc(C(=O)N4CCOCC4)nc3c2C(C)C)cn2ncnc12                 0.365
 3  COc1cc(-c2[nH]c3sc(C4CCC(NS(C)(=O)=O)CC4)nc3c2C(C)C)cn2ncnc12 (centres unmarked)                 0.178
 4  Cc1cc2ncnn2cc1-c1[nH]c2sc(C3CCC(N4CCCOCC4)CC3)nc2c1C(C)C (single isomer, unassigned) [Example 147]               0.00567
 5  Cc1c(-c2[nH]c3sc(C4CCC(N5CC(O)(C(F)(F)F)C5)CC4)nc3c2C(C)C)cn2ncnc2c1C (single isomer, unassigned) [Example 235]               0.00101
 6  Cc1c(-c2[nH]c3sc(C4CCN(CC(=O)N(C)C)CC4)nc3c2C(C)C)cn(C)c(=O)c1C                0.0223
 7  Cc1c(-c2[nH]c3sc(CN4CCOCC4)nc3c2C(C)C)cn2ncnc2c1C                 0.279
 8  Cc1cc(-c2[nH]c3sc(C4CCN(CC(C)(C)O)CC4)nc3c2C(C)C)cn2ncnc12               0.00257
 9  CNC(=O)CN1C[C@H](C)N(c2nc3c(C(C)C)c(-c4cn5ncnc5c(C)c4C)[nH]c3s2)C[C@H]1C                0.0397
10  COc1cc(-c2[nH]c3sc(C4CCC(N5CC(OC)C5)CC4)nc3c2C(C)C)cn2ncnc12 (single isomer, unassigned) [Example 123]                0.0168
11  COc1cc(-c2[nH]c3sc(C4CCN(C5CCOCC5)CC4)nc3c2C(C)C)cn2ncnc12               0.00086
12  Cc1cc(-c2[nH]c3sc(C4CCC(NCC(C)(C)O)CC4)nc3c2C(C)C)cn2ncnc12 (single isomer, unassigned) [Example 140]               0.00089
13  COc1cc(-c2[nH]c3sc(C4CCC(N(C)C5COC5)CC4)nc3c2C(C)C)cn2ncnc12 (centres unmarked) [Example 124]                0.0315
